Target: His-tagged IDO1 human recombinant protein (Homo sapiens)
Assay: IDO1 ELISA (affinity assay), sandwich ELISA with immobilized biotinylated macrocycle
Conditions: biotin-PEG3-modified macrocycle immobilized on NeutrAvidin plate (2 μM coating); His-tagged human IDO1 200 to 0 nM
Where a SMILES comes first, the peptide text is derived from it. Bridges are numbered along the chain shown (N, C = ends). Triazole bridges read from a SMILES are 1,4-linked. [ ]: non-standard residue; d: D form. The star is where a group is joined. Biotin = O=C1N[C@H]2[C@H](CS[C@H]2CCCCC(=O)*)N1; Trp(1-Me) = Cn1cc(C[C@H](N)C(=O)O)c2ccccc21; Lys(N3) = [N-]=[N+]=NCCCC[C@H](N)C(=O)O; AEEEA = NCCOCCOCCOCC(=O)O; Pra = C#CC[C@H](N)C(=O)O
Each entry below carries its reported EC50.

Prompt: Form field: reported EC50 of Cn1cc(C[C@@H]2NC(=O)[C@@H](CCCNC(=N)N)NC(=O)[C@@H](Cc3ccccc3)NC(=O)[C@@H](CO)NC(=O)[C@@H](CC(N)=O)NC(=O)[C@@H](NC(=O)COCCOCCOCCNC(=O)CCCC[C@@H]3SC[C@@H]4NC(=O)N[C@@H]43)Cc3cn(nn3)CCCC[C@@H](C(N)=O)NC2=O)c2ccccc21 [biotin-PEG3-Cy(nsfr(Me-Trp))] ({Biotin-AEEEA}-[Pra][dN][dS][dF][dR][Trp(1-Me)][Lys(N3)]-NH2; triazole 1-7)
Completion: 124 nM

====

Target: His-tagged IDO1 human recombinant protein (Homo sapiens, UniProt P14902)
Construct: purchased BPS Biosciences 71182
Sequence (P14902 whole entry): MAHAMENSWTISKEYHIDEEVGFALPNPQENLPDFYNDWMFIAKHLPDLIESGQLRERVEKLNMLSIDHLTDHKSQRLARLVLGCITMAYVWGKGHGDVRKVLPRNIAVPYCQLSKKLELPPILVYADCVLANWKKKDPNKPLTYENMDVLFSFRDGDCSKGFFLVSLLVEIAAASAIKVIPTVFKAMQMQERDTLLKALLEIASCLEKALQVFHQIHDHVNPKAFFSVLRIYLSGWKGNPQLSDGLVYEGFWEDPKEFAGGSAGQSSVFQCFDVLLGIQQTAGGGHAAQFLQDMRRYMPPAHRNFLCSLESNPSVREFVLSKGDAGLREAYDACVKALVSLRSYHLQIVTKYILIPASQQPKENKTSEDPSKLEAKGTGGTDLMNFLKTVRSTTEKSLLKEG
Assay: IDO1 ELISA (affinity assay), sandwich ELISA with immobilized biotinylated macrocycle
Assay type: binding
Conditions: biotin-PEG3-modified macrocycle immobilized on NeutrAvidin plate (2 μM coating); His-tagged human IDO1 200 to 0 nM
Where a SMILES comes first, the peptide text is derived from it. Bridges are numbered along the chain shown (N, C = ends). Triazole bridges read from a SMILES are 1,4-linked. [ ]: non-standard residue; d: D form. The star is where a group is joined. Biotin = O=C1N[C@H]2[C@H](CS[C@H]2CCCCC(=O)*)N1; Trp(1-Me) = Cn1cc(C[C@H](N)C(=O)O)c2ccccc21; Lys(N3) = [N-]=[N+]=NCCCC[C@H](N)C(=O)O; AEEEA = NCCOCCOCCOCC(=O)O; Pra = C#CC[C@H](N)C(=O)O
Measured pEC50 by item
Note on units: pEC50 is unitless, being -log10 of a concentration expressed in mol/L.

{"COMPOUND": "Cn1cc(C[C@@H]2NC(=O)[C@@H](Cc3ccccc3)NC(=O)[C@@H](CCCNC(=N)N)NC(=O)[C@@H](Cc3ccccc3)NC(=O)[C@@H](NC(=O)COCCOCCOCCNC(=O)CCCC[C@@H]3SC[C@@H]4NC(=O)N[C@@H]43)Cc3cn(nn3)CCCC[C@@H](C(N)=O)NC(=O)[C@@H](CO)NC2=O)c2ccccc21 [biotin-PEG3-Cy(frf(Me-Trp)s)] ({Biotin-AEEEA}-[Pra][dF][dR][dF][Trp(1-Me)][dS][Lys(N3)]-NH2; triazole 1-7)", "pEC50": 7.70}
{"COMPOUND": "CC(C)C[C@H]1NC(=O)[C@@H](Cc2ccc(O)cc2)NC(=O)[C@@H](Cc2ccccc2)NC(=O)[C@@H](Cc2ccccc2)NC(=O)[C@@H](CCCNC(=N)N)NC(=O)[C@@H](NC(=O)COCCOCCOCCNC(=O)CCCC[C@@H]2SC[C@@H]3NC(=O)N[C@@H]32)Cc2cn(nn2)CCCC[C@@H](C(N)=O)NC1=O [biotin-PEG3-Cy(rffyl)] ({Biotin-AEEEA}-[Pra][dR][dF][dF][dY][dL][Lys(N3)]-NH2; triazole 1-7)", "pEC50": 6.90}

Prompt: Could you tell me which pEC50 is on file for C[C@H]1NC(=O)[C@@H](CCCNC(=N)N)NC(=O)[C@@H](Cc2ccc(O)cc2)NC(=O)[C@@H](Cc2c[nH]c3ccccc23)NC(=O)[C@@H](NC(=O)COCCOCCOCCNC(=O)CCCC[C@@H]2SC[C@@H]3NC(=O)N[C@@H]32)Cc2cn(nn2)CCCC[C@@H](C(N)=O)NC(=O)[C@@H](Cc2ccc(O)cc2)NC1=O [biotin-PEG3-Cy(wyray)] ({Biotin-AEEEA}-[Pra][dW][dY][dR][dA][dY][Lys(N3)]-NH2; triazole 1-7) ?
Completion: 7.60

Reference source for all entries: patent US11884707B2
